- measurement-description: Drug uptake in gall bladder of human LNCAP cells xenografted NCR nu/nu mouse at 0.19 to 0.36 MBq, iv at 6 hrs
- Assay type: ADME, organism-based
- condition-summary: NCR nu/nu, gall bladder, read-out: Drug uptake
endpoint: tissue uptake at 6 h (%ID/g)
Give the quantity in %ID/g, number only.

INPUT: Which tissue uptake at 6 h value is on record for `O=C(O)CC[C@H](NC(=O)N[C@@H](CCCCNC(=O)Cn1nnc([125I])c1CNc1ccc([N+](=O)[O-])cc1[N+](=O)[O-])C(=O)O)C(=O)O` ?
OUTPUT: 7.89

====

Can you tell me Kp at 1 h for the items I'm about to list?
- measurement-description: Ratio of drug level in tumor to blood in human LNCAP cells xenografted NCR nu/nu mouse at 0.19 to 0.36 MBq, iv at 1 hr
- Type: ADME, organism-based
Answer with a bare number; do not write a unit.

INPUT: Which Kp at 1 h value is on record for `O=C(O)CC[C@H](NC(=O)N[C@@H](CCCCNC(=O)Cn1nnc(COCCOCCOCCOCCOCCOCCOCCOCCNc2ccc([N+](=O)[O-])cc2[N+](=O)[O-])c1[125I])C(=O)O)C(=O)O` ?
OUTPUT: 10

INPUT: Which Kp at 1 h value is on record for `O=C(O)CC[C@H](NC(=O)N[C@@H](CCCCNC(=O)Cn1nnc([125I])c1CNc1ccc([N+](=O)[O-])cc1[N+](=O)[O-])C(=O)O)C(=O)O` ?
OUTPUT: 35
